Measured target: T1, human CD47-Fc protein (Novoprotein, Cat#CG18) (human, UniProt Q08722 19-139)
T1 construct: Bought protein; also called CD47-hFc; hCD47-hFc fusion protein; not shown: human IgG Fc of the bought fusion protein
Method summary: IC50 (nM) as grade, blocking of soluble CD47 binding to SIRPα-expressing CHO cells; legend ++: >1 nM and <10 nM
pIC50: −log10 of the molar value.
Let's look at some binders and their measured pIC50.

q: pIC50 for ABU5 (antibody, V domains shown, Murine hybridoma monoclonal antibody; also called ABUS [sic]) VH: QVQLQQPGAELVKPGASVKMSCKASGYTFTNYWIAWVKRRPGQGLEWIGDFYPGNTSTNYNEKFKTKATLTIDTSSSTAYMQLSSLTSEDSAVYYCARRGRGGSSYWGQGTTLTVSS VL: DVLMTQTPLSLPVSLGEQASISCRSSQSIVHSNGNTYLEWYLQKPGQSPKLLIYRVANRFSGVPDRFSGSGSGTDFTLKISRVEAEDLGVYYCFQGSHVPWTFGGGTKLEIK ?
a: 8.00 to 9.00

q: pIC50 for ABU2 (antibody, V domains shown, Murine hybridoma monoclonal antibody) VH: QVQLQQPGAELVRPGASVKLSCKASGYTFTNYWMNWFKQRPEQGLEWIGRIDPYDSETLYNQKFKDKAILTVDKSSSTAYMQLSSLTSEDSAVYYCAGGGKGGFGYWGQGTLVTVSA VL: DVLMTQTPLSLPVSLGDQASISCRSSQSIVYSNGNTYLEWYLQKPGQSPKLLIYKVSNRFSGVPDRFSGSGSGTDFTLKISRVEAEDLGVYYCFQGSHVPYTFGGGTKLEIK ?
a: 8.00 to 9.00
